// values below are reported LC retention time
EXPERIMENT_SUMMARY: Waters ACQUITY UPLC BEH C18, 100 × 2.1 mm, 1.7 µm, 40 °C, 0.28 mL/min, estimated dead time 0.63 min; A: water + 6.5 mM ammonium hydroxide; B: methanol + 6.5 mM ammonium hydroxide; gradient (min/%B) 0/0.5 4/70 4.5/98 5.4/98
CONDITION_NOTES: stereoisomer not certain
QUANTITY_KIND: LC retention time (min)

* O=C1CCCc2[nH]ccc21 | 3.04
* O=C(O)C(O)c1ccccc1 (stereo unspecified) | 1.59
* CC1CNC(=O)NC1=O (stereo unspecified) | 1.94
* OCC1OC(OCC2OC(OCC3OC(OC4(CO)OC(CO)C(O)C4O)C(O)C(O)C3O)C(O)C(O)C2O)C(O)C(O)C1O (stereo unspecified) | 0.928
* O=C(O)CNC(=O)Cc1ccccc1 | 2.69
* CCCCNC(=O)NS(=O)(=O)c1ccc(C)cc1 | 4.37
* NCCCCC(N)C(=O)O (stereo unspecified) | 0.794
* Nc1ccn(C2OC(CO)C(O)C2O)c(=O)n1 (stereo unspecified) | 1.49
* CC(=O)Oc1cccc(O)c1 | 3.06
* Cc1cn(C2CC(O)C(COP(=O)(O)OP(=O)(O)OC3OC(CO)C(O)C(O)C3O)O2)c(=O)[nH]c1=O (stereo unspecified) | 0.923
* NC(=O)CCC(NC(=O)Cc1ccccc1)C(=O)O (stereo unspecified) | 2.69
* Nc1cc(C(=O)O)ccc1O | 0.796
* CCC(C)C(=O)NCC(=O)O (stereo unspecified) | 2.17
* Nc1nc2nccnc2c(=O)[nH]1 | 1.57
* O=C(CCc1ccc(O)cc1)c1c(O)cc(O)cc1OC1OC(CO)C(O)C(O)C1O (stereo unspecified) | 3.5
* OCc1ccccc1OC1OC(CO)C(O)C(O)C1O (stereo unspecified) | 2.89
* CCN1CCCC1CNC(=O)c1cc(S(N)(=O)=O)ccc1OC (stereo unspecified) | 4.29
* CC(=O)Nc1ccc(O)cc1 | 2.58
* NC(Cc1ccccc1)C(=O)O (stereo unspecified) | 2.37
* Oc1ccc2[nH]ccc2c1 | 2.98
* O=C(O)c1ccc2ccccc2n1 | 3.07
* O=C(O)c1ccc(O)cc1 | 0.892
* Nc1ncnc2c1ncn2C1CC(O)C(COP(=O)(O)O)O1 (stereo unspecified) | 1.31
* CC(C)C(N)C(=O)O (stereo unspecified) | 1
* NC(Cc1cnc[nH]1)C(=O)O (stereo unspecified) | 0.849
* CC(=O)NCCCCN | 1.29
* CC1C(=O)Nc2ccccc21 (stereo unspecified) | 4.59
* O=C(O)C(=O)c1ccccc1 | 2.26
* O=C(O)Cc1ccccc1O | 2.46
* Cc1cc(C(=O)O)ccc1O | 3.54
* Cc1ccc(OS(=O)(=O)O)cc1 | 2.9
